Test target: T1, mfGITR.mmh (Macaca fasicularis)
T1 construct: soluble monomeric construct; also called Macaca fasicularis (mf) GITR.mmh; cynomolgus GITR protein
T1 chain: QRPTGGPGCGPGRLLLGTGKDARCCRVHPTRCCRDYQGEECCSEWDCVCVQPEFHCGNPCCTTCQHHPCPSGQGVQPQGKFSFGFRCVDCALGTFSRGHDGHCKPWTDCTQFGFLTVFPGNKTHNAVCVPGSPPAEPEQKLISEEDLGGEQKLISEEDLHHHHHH
Protocol notes: SPR 37C, mAb capture
Endpoint: kon (M⁻¹ s⁻¹)

{"columns": ["Binder", "Value measured"],
 "data": [
  ["H4H14521P (antibody, human IgG4, V domains shown, human IgG4 (H4H)) VH: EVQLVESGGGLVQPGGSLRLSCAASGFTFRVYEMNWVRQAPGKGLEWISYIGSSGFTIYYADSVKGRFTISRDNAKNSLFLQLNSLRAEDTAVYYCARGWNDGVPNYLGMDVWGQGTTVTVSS VL: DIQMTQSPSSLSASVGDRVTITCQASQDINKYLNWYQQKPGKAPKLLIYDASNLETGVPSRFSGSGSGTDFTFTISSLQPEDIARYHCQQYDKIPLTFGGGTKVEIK", 166000]
]}
